target entity: Human adrenergic α2A receptor (Homo sapiens)
Sequence (P08913 whole entry): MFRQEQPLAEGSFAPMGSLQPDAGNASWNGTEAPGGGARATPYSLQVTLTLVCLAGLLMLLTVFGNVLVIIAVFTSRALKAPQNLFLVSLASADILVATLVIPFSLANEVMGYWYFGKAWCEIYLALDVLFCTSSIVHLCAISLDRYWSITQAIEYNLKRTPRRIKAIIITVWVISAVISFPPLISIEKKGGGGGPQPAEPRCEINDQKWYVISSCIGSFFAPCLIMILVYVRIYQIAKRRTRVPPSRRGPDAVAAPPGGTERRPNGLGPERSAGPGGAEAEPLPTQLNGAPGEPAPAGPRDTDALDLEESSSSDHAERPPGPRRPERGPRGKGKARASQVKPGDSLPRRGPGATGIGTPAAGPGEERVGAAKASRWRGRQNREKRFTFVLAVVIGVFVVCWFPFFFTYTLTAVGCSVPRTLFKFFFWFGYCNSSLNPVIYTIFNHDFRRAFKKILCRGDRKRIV
protocol summary: Radioligand binding, adrenergic α2A (Protocol Group B)
Parameters: purchased Milipore (Millipore)
conditions: 0.3 μM compound; Protocol Group B; 0.3 µM
reported property: Percentage inhibition of ligand binding, Adrenergic α2A (0.3 μM) (%)

Recorded results for 3 compounds are shown here.
>  <compound>
CC(O)(Cn1c2c(c3cc(Cl)cc(F)c31)C1CCCN1CC2)c1ccncc1 (single isomer, unassigned) [52d]

>  <unit name>
%

>  <value reported>
1

$$$$
>  <compound>
Cc1ccc2c(c1)c1c(n2CC(C)(O)c2ccc(F)cc2)CC2CCC1N2C (single isomer, unassigned) [102d]

>  <unit name>
%

>  <value reported>
4

$$$$
>  <compound>
Cc1cc(F)c2c(c1)c1c(n2CC(C)(O)c2cccnc2)CCN2CCCC12 (single isomer, unassigned) [79d]

>  <unit name>
%

>  <value reported>
5

$$$$

P: Cc1cc(Cl)c2c(c1)c1c(n2CC(C)(O)c2ccncc2)CCN2CCCC12 (single isomer, unassigned) [91b]
Q: CN1CCc2c(c3cc(C(F)(F)F)ccc3n2CC(OC2CCCC2)c2ccncc2)C1 (single isomer, unassigned) [60b]
Which numeric Percentage inhibition of ligand binding, Adrenergic α2A (0.3 μM) is bigger, that of P or that of Q ? Provide the label of your selected option as the answer.
P
